assayed-system: T1, DcR3 (UniProt O95407 30-300, limits assumed)
T1 construct: the construct is not described; also called decoy receptor DcR3; TNFRSF6B
T1 sequence (looked up): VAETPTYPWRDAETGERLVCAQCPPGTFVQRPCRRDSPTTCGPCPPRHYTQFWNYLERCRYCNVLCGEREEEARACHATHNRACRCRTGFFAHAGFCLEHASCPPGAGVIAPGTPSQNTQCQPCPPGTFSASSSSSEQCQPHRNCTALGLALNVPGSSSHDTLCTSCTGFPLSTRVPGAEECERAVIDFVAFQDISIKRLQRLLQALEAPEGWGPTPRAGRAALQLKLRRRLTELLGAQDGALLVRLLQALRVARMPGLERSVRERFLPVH
test-details: ELISA, DcR3
metric: pEC50
When answering, recall that pEC50 equals minus log10 of the concentration in mol/L, and write that number alone.

input: pEC50 for TL1W32 (His-TEV-hTL1A 72-251 Y188A) (ligand, also called TL1W32 (Y188A)) HHHHHHENLYFQGLKGQEFAPSHQQVYAPLRADGDKPRAHLTVVRQTPTQHFKNQFPALHWEHELGLAFTKNRMNYTNKFLLIPESGDYFIYSQVTFRGMTSECSEIRQAGRPNKPDSITVVITKVTDSAPEPTQLLMGTKSVCEVGSNWFQPIYLGAMFSLQEGDKLMVNVSDISLVDYTKEDKTFFGAFLL ?
output: 8.12

input: pEC50 for TL1W84 (His-TEV-TL1A E120H) (ligand, also called TL1W84 (E120H)) HHHHHHENLYFQGLKGQEFAPSHQQVYAPLRADGDKPRAHLTVVRQTPTQHFKNQFPALHWHHELGLAFTKNRMNYTNKFLLIPESGDYFIYSQVTFRGMTSECSEIRQAGRPNKPDSITVVITKVTDSYPEPTQLLMGTKSVCEVGSNWFQPIYLGAMFSLQEGDKLMVNVSDISLVDYTKEDKTFFGAFLL ?
output: 7.25

Kindly consider the entry below.
input: pEC50 for TL1W117 (His-TEV-TL1A T192E) (ligand, also called TL1W117 (T192E)) HHHHHHENLYFQGLKGQEFAPSHQQVYAPLRADGDKPRAHLTVVRQTPTQHFKNQFPALHWEHELGLAFTKNRMNYTNKFLLIPESGDYFIYSQVTFRGMTSECSEIRQAGRPNKPDSITVVITKVTDSYPEPEQLLMGTKSVCEVGSNWFQPIYLGAMFSLQEGDKLMVNVSDISLVDYTKEDKTFFGAFLL ?
output: 7.92
